- measured-target: ATP-dependent Clp protease proteolytic subunit (Bacillus subtilis (strain 168)) (UniProt P80244)
- experimental-protocol: qHTS Assay for Activators of ClpP; note: the source files actives as falling curves though it sought activators and does not explain the sign; nearly all actives have a fitted effect of over 65% in size
- measurement-context: purified B. subtilis ClpP, FRET peptide cleavage, 20 min; series mostly up to 57.5 µM
Out of some 340,000 compounds screened, about 6,400 (1.9%) were called active. Not shown: some 4% with an inconclusive outcome. Calls come from the whole dose curve; as a rule, active = well fitted falling curve with a large enough effect; inconclusive = small, poorly fitted or top-dose-only effect; inactive = no such curve, though single readings can be large or run the other way. What follows is part of a selection rich in actives, with near analogues and random picks from the rest.
Classes to choose from: active, inactive

Exam item: Tell me the assay call for `CNc1cncc(-c2ccc(NS(C)(=O)=O)cc2)n1` please.
Marked response: inactive

Exam item: Lab log entry: `O=C(c1ccccc1)N1CCN(c2cc(-c3ccccc3)nc3cc(-c4cccc(Cl)c4)nn23)CC1` — outcome as called in the assay?
Marked response: inactive

Exam item: Name the outcome recorded for CC1(C)CC(=O)c2cc(OCC(=O)NCC3CCCO3)ccc2O1 (configuration not stated) in the assay.
Marked response: active

Exam item: Per the assay record, what outcome was assigned to `Cc1cc[n+](C2CCCCC2)cc1` ?
Marked response: inactive

Exam item: Hello, I am checking results. What call was entered for C=CCOc1ccc(/C=C/C(=O)OCC(=O)NCC2CCCO2)cc1 (configuration not stated) ?
Marked response: inactive

Exam item: What outcome does the record of this test show for `Cc1cc(C(F)(F)F)nn1-c1nc(-c2ccco2)cc(C(F)(F)F)n1` ?
Marked response: active

Exam item: Per the assay record, what outcome was assigned to `CC1(C)Cc2cccc(OCC(=O)NCc3ccccc3)c2O1` ?
Marked response: inactive

Exam item: Assay result, entry NCCCCC(C(=O)O)N(C(=O)OCc1ccccc1)C(=O)OCc1ccccc1 (configuration not stated) — outcome?
Marked response: inactive

Exam item: Short answer needed: outcome of this test for `CC(C)(C)c1ccc(C(=O)C[n+]2cccc3cc(Cl)ccc32)cc1` ?
Marked response: inactive

Exam item: Lab log entry: `COc1ccc(C(=O)Nc2nc(-c3ccc(S(=O)(=O)N4CCOCC4)cc3)cs2)cc1` — outcome as called in the assay?
Marked response: inactive

Exam item: Returns: the outcome recorded for Cc1nc(C(=O)NCc2ccccc2)sc1C1(C)CC(c2cccnc2)=NO1 (configuration not stated) in this assay.
Marked response: inactive

Exam item: What call does the record list for `CN(C)c1ccc(/C=C2\C=Cc3ccccc32)cc1Br` ?
Marked response: inactive

Exam item: Query: recorded result category for `COc1nc(NCc2ccc(Cl)cc2)nc(OC)n1` in this test
Marked response: inactive

Exam item: Identify the outcome logged in this assay for the molecule shown: `CCOC(=O)c1ccn(-c2nc(-c3ccco3)cc(C(F)(F)F)n2)n1`
Marked response: inactive

Exam item: # fetch the recorded call for `OC[C@@H]1CN(Cc2ccc(-c3ccccc3)cc2)C[C@H](n2cnc3c(NC4CCCC4)ncnc32)O1` here
Marked response: inactive

Exam item: I would be grateful if you could indicate the recorded call for `Cc1nc(NCc2ccccc2)c(C(N)=O)c2c1COC(C)(C)C2` .
Marked response: active

Exam item: Identify the outcome logged in this assay for the molecule shown: `COc1ccc(-c2csc(Nc3cccc(C)n3)n2)cc1OC`
Marked response: inactive

Exam item: Dear all, I need the recorded test outcome for `CCOCCC(=O)Nc1ccc2c(c1)c(=O)n(C)n2-c1ccc2ccccc2c1` , thank you.
Marked response: inactive

Exam item: Short answer needed: outcome of this test for `COc1ccc(-c2csc(NC(=O)c3ccc(N4C(=O)CCC4=O)cc3)n2)cc1OC` ?
Marked response: active

Exam item: Test call, this molecule: `O=C(C(=O)N1CCN(c2ccccc2)CC1)c1ccc2c(c1)OCO2`
Marked response: inactive

Exam item: Status in this test for `Cn1c(Nc2ccc(F)cc2)nc2cc(-c3ccsc3)sc2c1=O` ?
Marked response: inactive

Exam item: Fill in: this test's call for `COc1ccc(CNc2nc(-c3ccc(Cl)cc3)cc(C(F)(F)F)n2)cc1` is ___
Marked response: inactive

----------
- measured-target: ATP-dependent Clp protease proteolytic subunit (Bacillus subtilis (strain 168)) (UniProt P80244)
- experimental-protocol: qHTS Assay for Activators of ClpP; note: the source files actives as falling curves though it sought activators and does not explain the sign; nearly all actives have a fitted effect of over 65% in size
- measurement-context: purified B. subtilis ClpP, FRET peptide cleavage, 20 min; series mostly up to 57.5 µM
About 6,400 (1.9%) of roughly 340,000 compounds were called active. About 4% were inconclusive and are not listed. The call rests on the fitted dose curve; in most records, active means well fitted falling curve with a large enough effect; inconclusive means small, poorly fitted or top-dose-only effect; inactive means no such curve, though single readings can be large or run the other way. The sample as a whole holds a higher share of actives than the screen did.
I would appreciate it if you answered using one of these outcomes: active, inactive

Exam item: Entry `O=C1C(Sc2cccc(F)c2)=C[C@@]2(O)CC[C@@H](O)[C@]1(Sc1cccc(F)c1)[C@H]2O` : call = ?
Marked response: inactive

Exam item: Per the records of this test, what outcome belongs to O=C(N/N=C\C1CC=CCC1)c1ccc(Br)o1 (configuration not stated) ?
Marked response: inactive

Exam item: Recorded test call requested for `Cc1ccc(-n2c(N)c(C(=O)N3CCOCC3)sc2=S)c(C)c1`
Marked response: inactive

Exam item: Fill in: this test's call for CC(C)(C)C1CCC(=NNC(=O)c2ccc(Br)o2)CC1 (configuration not stated) is ___
Marked response: inactive

Exam item: Please share the test call associated with `COc1ccc(CCNC(=O)c2ccc3c(c2)sc2nc(-c4ccc(C)cc4)cn23)cc1OC` .
Marked response: active

Exam item: Just curious, what result did `COc1cccc(CNC(=O)c2ccc3c(c2)sc2nc(-c4cccc(OC)c4)cn23)c1` get here?
Marked response: inactive

Exam item: State the result this test recorded for C=C1C(=O)OC2C1CCC(C)=CCCC1(C)OC21 (configuration not stated) .
Marked response: inactive

Exam item: GET /call?item= `O=C(Nc1ccccc1-c1nnn(CC(=O)N2CCCc3ccccc32)n1)c1cccc(Cl)c1` returns the recorded outcome of this test.
Marked response: active

Exam item: Check the results log: what was the call for `COC(=O)c1c(C)cc(O)c(C)c1O` ?
Marked response: inactive

Exam item: Lab log entry: `FC(F)(F)c1cccc(-c2cc3ccccc3nc2N2CCCC2)c1` — outcome as called in the assay?
Marked response: active

Exam item: Outcome? FC(F)(F)c1cccc(-c2nc3ccccc3n2C(c2ccccc2)c2nc3ccccc3[nH]2)c1 (configuration not stated)
Marked response: inactive

Exam item: // return assay outcome for `Nc1nc2ncccn2c1-c1ccccc1`
Marked response: inactive

Exam item: Tell me the assay call for CCC(C)(C)C1CCC(=NNC(=O)c2ccc(Br)o2)CC1 (configuration not stated) please.
Marked response: active

Exam item: What did this assay record as the result for `N#Cc1ccccc1-n1c(N)c(C(=O)N2CCCC2)sc1=S` ?
Marked response: inactive

Exam item: Which outcome was entered for the compound `COC(=O)C1(C(=O)OC)C/C=C\CN(S(=O)(=O)c2ccccc2[N+](=O)[O-])CCC1` in this test?
Marked response: inactive

Exam item: Called result for Cc1ccccc1CN1C(=O)CSCC1(C)C(=O)Nc1c(C)cccc1C (configuration not stated)
Marked response: inactive

Exam item: Hi team, can someone confirm the assay call for `CC(=O)OC[C@@H]1CN(Cc2ccccc2)C[C@H](n2cnc3c(NCc4ccco4)ncnc32)O1` ?
Marked response: inactive

Exam item: Dear all, I need the recorded test outcome for `Cc1cccc(-n2c(N)c(C(=O)N3CCN(C)CC3)sc2=S)c1` , thank you.
Marked response: active

Exam item: Given `c1ccc(-c2ccnc3nc(-n4cccc4)nn23)cc1` , state the outcome it received in this test.
Marked response: active

Exam item: Test call for this compound, please: `CCOC1=C2[C@@H](CN(S(=O)(=O)c3ccc(C)cc3)[C@H]2c2ccccc2F)[C@H]2C(=O)N(Cc3ccccc3)C(=O)[C@H]2C1`
Marked response: inactive

Exam item: Please state the recorded outcome for this compound: CCC(C(=O)NCc1ccccc1)n1c(Cc2cc(F)cc(F)c2)nc2ccccc21 (configuration not stated)
Marked response: inactive

Exam item: What did the test return for CCOC(=O)C1=CCC2C(=O)N(Cc3ccccc3)C(=O)C12 (configuration not stated) ?
Marked response: inactive

----------
- measured-target: ATP-dependent Clp protease proteolytic subunit (Bacillus subtilis (strain 168)) (UniProt P80244)
- experimental-protocol: qHTS Assay for Activators of ClpP; note: potency is the fitted concentration of half-maximal effect; note: the source files actives as falling curves though it sought activators and does not explain the sign; nearly all actives have a fitted effect of over 65% in size
- measurement-context: purified B. subtilis ClpP, FRET peptide cleavage, 20 min; series mostly up to 57.5 µM
Among all 340,000 compounds or so, about 6,400 (1.9%) were called active. Not shown: some 4% with an inconclusive outcome. For the sample, actives were picked, then their nearest neighbours and some compounds at random.
readout-label: Potency

Worked examples, 5 molecules total:
Cc1ccc2c(c1)c1ncnc(N3CCc4ccccc4C3)c1n2C
31.6 µM (active)
Clc1ccc(-c2cccc3nccn23)cc1
inactive
COC(=O)C1(C(=O)OC)C[C@H](c2ccccc2)N(Cc2ccccc2OC)[C@@H]1c1ccccc1
inactive
CN(C)c1ccc(/C=C/C=C/c2ccnc3ccccc23)cc1
inactive
COc1ccc(CCNC(=O)COc2cc(C)cc3oc(=O)c(C)c(C)c23)cc1OC
inactive

We next turn to a different molecule, shown below.
Exam item: GET /values?readout=Potency&item= `Cc1cc(OCC(=O)Nc2nccs2)c2c(C)c(C)c(=O)oc2c1`
Marked response: 31.6 µM (active)
